# Test system: Wolbachia pipientis
# assay.text: Anti-Wolbachia Cell-Based Screen
# Assay type: functional
# Design: scale not given: in the data most compounds retested in dose-response had high values
# settings: 5 µM
Hit rate of the full screen: of about 48,000 compounds, about 13,000 (27%) showed an effect of 50% or more. The list shows a part of the results.

[
  {
    "compound": "NC1CCN(C(=O)c2cnc(Cc3c(Cl)cccc3Cl)nc2O)C1 (stereo not given)",
    "measure.unit": "%",
    "Percent Effect": -9.17
  },
  {
    "compound": "Cn1cncc1CNC1CC2(CCN(S(C)(=O)=O)CC2)c2ccccc21.O=C(O)C(F)(F)F (stereo not given)",
    "measure.unit": "%",
    "Percent Effect": -9.896
  },
  {
    "compound": "CS(=O)(=O)N1CCC2(CC1)CC(NCc1ccco1)c1ccccc12.O=C(O)C(F)(F)F (stereo not given)",
    "measure.unit": "%",
    "Percent Effect": 91.69
  },
  {
    "compound": "CS(=O)(=O)N1CCC2(CC1)CC(NCc1ccccn1)c1ccccc12 (stereo not given)",
    "measure.unit": "%",
    "Percent Effect": 90.85
  },
  {
    "compound": "CS(=O)(=O)N1CCC2(CC1)CC(CC(=O)N1CCCC1)c1ccccc12 (stereo not given)",
    "measure.unit": "%",
    "Percent Effect": 5.675
  }
]
